The reported measurements were obtained from paper PMC5540273.

System: SYK
CONDITION_NOTES: concentration: 1 μM, replicates: in singlicate; n = 1
Each item that follows carries a reported %Inh.
Give your result in % as a bare value.

Would you please look over these solved cases?
[[record]]
molecule = "CCC(=O)c1c(-c2ccccc2)c2cc(Cl)ccc2c(=O)n1Cc1cc(C(=O)NC2CC2)n(C)n1"
result_units = "%"
observed_measurement = 0

[[record]]
molecule = "Nc1n[nH]c2nnc(-c3ccccc3)c(-c3ccccc3)c12 [GW554060]"
result_units = "%"
observed_measurement = 0

[[record]]
molecule = "O=C(NCCNc1ccnc(Nc2ccc(F)cc2)n1)Nc1ccc2c(c1)OCO2 [GSK1379882]"
result_units = "%"
observed_measurement = 0

[[record]]
molecule = "COc1cc(OC)cc(-c2cc3cnc(N)nc3nc2NC(=O)NC(C)(C)C)c1"
result_units = "%"
observed_measurement = 0

[[record]]
molecule = "Nc1nccc2scc(-c3ccc4c(c3)CCN4C(=O)Cc3ccccc3)c12 [GSK2576924]"
result_units = "%"
observed_measurement = 16

[[record]]
molecule = "Nc1nc(N)c2nc(-c3ccccc3)[nH]c2n1 [SKF-12778]"
result_units = "%"
observed_measurement = 43


Now look at this entry.
Q) So what does the record say about %Inh for O=C(Nc1n[nH]c2nc(-c3ccccc3)c(Br)cc12)C1CC1 [SB-708998] ?
A) 13

----------
Test system: RSK2(Kin.Dom.1-N-terminal)
Construct: gene RPS6KA3
CONDITION_NOTES: concentration: 1 μM, replicates: in singlicate; n = 1
MEASUREMENT_KIND: %Inh (%)
Field: numeric (%). Do not append units.

Example results:
[[record]]
molecule = "COc1cccc(C2=C(Nc3cccc(C(=O)O)c3)C(=O)NC2=O)c1 [SB-390770]"
measurement_kind = "%Inh"
observed_measurement = 4

[[record]]
molecule = "C[C@@H]1CC[C@H](C(=O)NC2CCCCC2)CN1c1cc(-c2ccc3c(N)n[nH]c3c2)nc(N)n1 [GSK2291363]"
measurement_kind = "%Inh"
observed_measurement = 32

[[record]]
molecule = "CCCNC(=O)Nc1ccc(Oc2ncnc3ccn(C)c23)cc1"
measurement_kind = "%Inh"
observed_measurement = 27

[[record]]
molecule = "OCCCNc1nccc(-c2c(-c3cccc(C(F)(F)F)c3)nn3cc(C(F)(F)F)ccc23)n1 [GW630813]"
measurement_kind = "%Inh"
observed_measurement = 0


Continue with the next molecule.
Q) Name the recorded %Inh for Cl.c1ccc(Cn2cnc3cc(Nc4ncnc5ccccc45)ccc32)cc1 [GW272142] .
A) 0

----------
# %Inh per record follows
Test system: TXK
CONDITION_NOTES: concentration: 1 μM, replicates: in singlicate; n = 1
Record the value in %, omitting the unit from your answer.

Record excerpt, results attached:
[[record]]
molecule = "COc1cc2nccc(Nc3ccc(OCc4ccc(NC(C)=O)cc4)cc3)c2cc1OC.Cl"
system_tested = "TXK"
measurement_kind = "%Inh"
result_units = "%"
observed_measurement = 6

[[record]]
molecule = "Fc1cccc(CSc2nnc(-c3ccc4c(c3)CCO4)o2)c1"
system_tested = "TXK"
measurement_kind = "%Inh"
result_units = "%"
observed_measurement = 0

[[record]]
molecule = "CCC(=O)c1c(-c2ccccc2)c2cc(Cl)ccc2c(=O)n1Cc1cc(C(=O)NC2CC2)n(C)n1"
system_tested = "TXK"
measurement_kind = "%Inh"
result_units = "%"
observed_measurement = 24


Q) Fill in: %Inh of COc1cc(OC)cc(-c2cc3cnc(N)nc3nc2NC(=O)NC(C)(C)C)c1 is ___
A) 19

Q) Look at this molecule and give its reported %Inh. Cc1nnc(-c2ccc3ncn(-c4ccc(S(C)=O)cc4)c3c2)o1 (centres unmarked)
A) 5

----------
Known %Inh of a selection of molecules
System: BLK
CONDITION_NOTES: concentration: 1 μM, replicates: in singlicate; n = 1
Give the value in % but do not write % after it.

Please review the following examples before continuing.
[[record]]
molecule = "Nc1n[nH]c2nnc(-c3ccccc3)c(-c3ccccc3)c12"
result_units = "%"
observed_measurement = 35

[[record]]
molecule = "CCC(=O)c1c(-c2ccccc2)c2cc(Cl)ccc2c(=O)n1Cc1ccc(C(=O)O)cc1"
result_units = "%"
observed_measurement = 0

[[record]]
molecule = "CCn1c(-c2ccoc2)nc2cnccc21"
result_units = "%"
observed_measurement = 0

[[record]]
molecule = "COC(=O)c1c(-c2ccccc2)c2cc(Br)ccc2c(=O)n1Cc1ccc(NC(=O)CCC(=O)O)cc1"
result_units = "%"
observed_measurement = 4

[[record]]
molecule = "Nc1nccc2scc(-c3ccc4c(c3)CCN4C(=O)Cc3ccccc3)c12"
result_units = "%"
observed_measurement = 1


Q) Any idea what its %Inh is? The molecule is COc1cc(Nc2nccc(N3CCC(NC(=O)C4COc5ccccc5O4)C3)n2)cc(OC)c1OC (stereo not shown)
A) 16

Q) Given the entry CN1C(=O)C(Nc2cc(Cl)c(O)c(Cl)c2)=C(c2ccc(Cl)cc2)C1=O , report its measured %Inh.
A) 0

Q) Fill blank: measured %Inh of the molecule COc1ccc(-c2coc3ccc(-c4nnc(SCc5cccc(C#N)c5)o4)cc23)cc1 is ____.
A) 0

Q) Which %Inh is listed for CC(C)(C)c1ccc(C(=O)Nc2cn3cc(-c4ccccc4)ccc3n2)cc1 ?
A) 0

Q) Fill in: %Inh of CCC(=O)c1c(-c2ccccc2)c2cc(Cl)ccc2c(=O)n1Cc1cc(S(C)(=O)=O)n(CC(N)=O)n1 is ___
A) 5

Q) For the molecule Cc1ccccc1COc1cc(-n2cnc3cc(Cl)ccc32)sc1C(N)=O , what %Inh is on record?
A) 18

Q) // query %Inh value for entry Cc1c(Cn2c(C)nn3c(=O)cc(N4CCO[C@H](C)C4)nc23)cccc1C(F)(F)F
A) 10

Q) Requested field: %Inh. Item: Cc1nnc(-c2ccc(C)c(-c3ccc(C(=O)O)cc3)c2)o1
A) 31

Q) Query: %Inh; subject: O=C(Nc1n[nH]c2nc(-c3ccccc3)c(Br)cc12)C1CC1
A) 8

Q) Any idea what its %Inh is? The molecule is COc1cc(Nc2ccnc3ccc(C(F)(F)F)cc23)cc(OC)c1OC
A) 34

Q) # get_value(readout='%Inh', item= COc1cc2ncn(-c3cc(OCc4ccc(S(C)(=O)=O)cc4)c(C(N)=O)s3)c2cc1OC )
A) 46

----------
System: KIT
CONDITION_NOTES: concentration: 1 μM, replicates: in singlicate; n = 1
MEASUREMENT_KIND: %Inh
Give your result as the value with the unit written after it.

Observe how each entry below is paired with its result.
[[record]]
mol_smiles = "CCCC(=O)Nc1n[nH]c2ncc(-c3cccc4ccccc34)cc12"
measurement_kind = "%Inh"
observed_measurement = "12%"

[[record]]
mol_smiles = "Nc1ncnc2c1ncn2-c1cccc2ccccc12"
measurement_kind = "%Inh"
observed_measurement = "8%"

[[record]]
mol_smiles = "O=c1cc(N2CCOCC2)nc2n(Cc3ccc(F)c(Cl)c3)ccn12"
measurement_kind = "%Inh"
observed_measurement = "9%"

[[record]]
mol_smiles = "Cc1ccccc1COc1cc(-n2cnc3cc(Cl)ccc32)sc1C(N)=O"
measurement_kind = "%Inh"
observed_measurement = "0%"


Then there is this compound:
Q) %Inh for O=C(Nc1ccc2c(c1)OCO2)NC1CCN(c2ccnc(NCc3ccc(F)cc3)n2)CC1 ?
A) 2%

----------
System: GRK7
CONDITION_NOTES: concentration: 1 μM, replicates: in singlicate; n = 1
Attribute: %Inh
Response body: numeric value in %, unit text excluded.

# example entries with known answers
[[record]]
mol_smiles = "C[C@@H]1CC[C@H](C(=O)NC2CCCCC2)CN1c1cc(-c2ccc3c(N)n[nH]c3c2)nc(N)n1"
observed_measurement = 0

[[record]]
mol_smiles = "Cc1ccc(Oc2ccc(Nc3ncnc4cc[nH]c34)cc2C)cn1"
observed_measurement = 44


Q) Entry under review: COc1ccc(-c2cc3c(C)nc(N)nc3n([C@H]3CC[C@H](OCCO)CC3)c2=O)cn1 . Reported %Inh?
A) 1

Q) // %Inh lookup, key: COc1cccc(C2=C(Nc3cccc(C(=O)O)c3)C(=O)NC2=O)c1
A) 0

----------
System: LOK;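 further: kd values determined as follow-up on hits from a single-replicate KINOMEscan panel screen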
Construct: gene STK10
MEASUREMENT_KIND: Kd (nM)
State just the number; it will be interpreted in nM.

Q) Could you tell me which Kd is on file for COc1cc2ncn(-c3cc(OCc4ccncc4Br)c(C(N)=O)s3)c2cc1OC ?
A) 500

----------
System: FER
CONDITION_NOTES: concentration: 1 μM, replicates: in singlicate; n = 1
Below is a list of entries, each paired with its recorded %Inh value.
Number in %, nothing else.

[[record]]
compound = "Cc1nc(N(C)[C@H]2CN(C(=O)CC#N)CC[C@H]2C)c2cc[nH]c2n1"
observed_measurement = 0

[[record]]
compound = "CCC(=O)c1c(-c2ccccc2)c2cc(Cl)ccc2c(=O)n1Cc1cc(S(C)(=O)=O)n(CC(N)=O)n1"
observed_measurement = 0

[[record]]
compound = "CCn1c(-c2ccoc2)nc2cnccc21 [SB-733887]"
observed_measurement = 20

[[record]]
compound = "COc1ccc(-n2cnc3c(N)ncnc32)cc1 [SKF-97236]"
observed_measurement = 13

[[record]]
compound = "Nc1n[nH]c2ncc(-c3ccccc3)cc12 [SB-517081]"
observed_measurement = 0


Q) Returns the measured %Inh for the input compound. Input: CCS(=O)c1ccc(-c2coc3ccc(-c4nnc(C)o4)cc23)cc1 (stereo not drawn)
A) 11
